# Experimental System: human σ1 receptor and human μ-opioid receptor
# Protocol Description: Human σ1 receptor radioligand assay and human μ-opioid receptor radioligand assay (μ and σ1 dual binding)
# Condition Set: one class for both Ki: σ1 ([3H](+)-pentazocine, transfected HEK-293 membranes) and μ-opioid ([3H]-DAMGO, transfected CHO-K1 membranes)
pKi: −log10 of the molar value.
Reported values of pKi for individual entries

Compound | pKi
CN(c1cccc(NS(C)(=O)=O)c1)C1CN(Cc2cn(-c3ccccc3)nn2)C1 | > 6.30
CC(C)S(=O)(=O)Nc1cccc(N2CCN(Cc3cn(-c4cccc(F)n4)nn3)CC2)c1 | > 6.30
CC(C)S(=O)(=O)Nc1cccc(N2CCN(Cc3cn(-c4ccccc4)nn3)CC2)n1 | > 6.30
CC(C)S(=O)(=O)Nc1cccc(N2CCN(Cc3cn(-c4cccc(F)c4)nn3)CC2)c1 | > 7.00
CS(=O)(=O)Nc1cccc(N2CCN(Cc3cnn(Cc4ccccc4)c3)CC2)c1 | > 6.30
CC(C)S(=O)(=O)Nc1cccc(N2CCN(Cc3cnn(-c4ccccc4)c3)CC2)c1 | > 7.00
O=S(=O)(Nc1cccc(N2CCN(Cc3cn(-c4ccccc4)nn3)CC2)c1)C1CC1 | > 7.00
Oc1cccc(N2CCN(Cc3cnn(-c4ccccc4)c3)CC2)c1 | > 7.00
CC(C)S(=O)(=O)Nc1cccc(N(C)C2CCN(Cc3cn(-c4ccccc4)nn3)C2)c1 (stereo not drawn) | > 7.00
CC(C)S(=O)(=O)Nc1cccc(N2CCN(Cc3cn(-c4ccccc4F)nn3)CC2)c1 | > 7.00
CS(=O)(=O)Nc1cccc(NC2CN(Cc3cn(-c4ccccc4)nn3)C2)c1 | > 6.30
CC(C)S(=O)(=O)Nc1cccc(N2CCN(Cc3cn(Cc4ccccc4)cn3)CC2)c1 | > 6.30
CS(=O)(=O)Nc1cccc(N2CCN(Cc3cn(-c4ccccc4)nn3)CC2)c1 | > 6.30
CC(C)S(=O)(=O)Nc1cccc(N2CCN(Cc3cnn(-c4ccccn4)c3)CC2)n1 | > 6.30
CC(C)S(=O)(=O)Nc1cccc(N2CCN(Cc3cnn(-c4ccccn4)n3)CC2)c1 | ≤ 6.30
CC(C)S(=O)(=O)Nc1cccc(N2CC3CN(Cc4cn(-c5ccccc5)nn4)CC3C2)c1 (stereo not drawn) | > 7.00
CS(=O)(=O)Nc1cccc(N2CCCN(Cc3cn(-c4ccccc4)nn3)CC2)c1 | > 6.30
Nc1cccc(N2CCN(Cc3cn(-c4ccccc4)nn3)CC2)c1 | ≤ 6.30
CC(C)S(=O)(=O)Nc1ccc(Cl)c(N2CCN(Cc3cn(-c4ccccc4)nn3)CC2)n1 | > 6.30
CC(C)S(=O)(=O)Nc1cccc(N2CCCN(Cc3cn(-c4ccccc4)nn3)CC2)n1 | > 7.00
O=S(=O)(Nc1cccc(N2CCN(Cc3cn(-c4ccccc4)nn3)CC2)c1)C(F)(F)F | ≤ 6.30
CS(=O)(=O)Nc1cccc(N2CCN(Cc3cnn(-c4ccccc4)c3)CC2)c1 | > 7.00
CC(C)S(=O)(=O)Nc1cccc(N2CCN(Cc3cn(-c4ccccn4)cn3)CC2)n1 | > 6.30
CS(=O)(=O)Nc1cccc(N2CC3CN(Cc4cn(-c5ccccc5)nn4)CC3C2)c1 (stereo not drawn) | > 6.30
CS(=O)(=O)Nc1cccc(N2CCN(Cc3cnn(-c4ccccn4)c3)CC2)c1 | > 6.30
CCS(=O)(=O)Nc1cccc(N2CCN(Cc3cn(-c4ccccc4)nn3)CC2)c1 | > 6.30
O=S(=O)(Nc1cccc(N2CCN(Cc3cn(-c4ccccc4F)nn3)CC2)n1)C1CC1 | > 6.30
O=S(=O)(Nc1cccc(N2CCN(Cc3cn(-c4ccccc4F)cn3)CC2)n1)C1CC1 | > 6.30
O=S(=O)(Nc1cccc(N2CCN(Cc3cn(-c4ccccn4)cn3)CC2)n1)C1CC1 | > 6.30
O=S(=O)(Nc1cccc(N2CCN(Cc3cn(-c4ccccc4)cn3)CC2)n1)C1CC1 | > 6.30
CC(C)S(=O)(=O)Nc1cccc(N2CCCN(Cc3cn(-c4ccccc4F)nn3)CC2)n1 | > 6.30
CC(C)S(=O)(=O)Nc1cccc(N2CCN(Cc3cn(-c4ccccn4)nn3)CC2)c1 | > 6.30
CN(c1cccc(NS(C)(=O)=O)c1)C1CCN(Cc2cn(-c3ccccc3)nn2)C1 (stereo not drawn) | > 7.00

Origin of values: patent US10745361B2
